Data provenance is paper doi:10.1101/2023.11.02.565342.

- target desc: T1, TOPOVIBLΔC25 (monomer) (Mus musculus, UniProt J3QMY9 1-554)
- T1 sequence: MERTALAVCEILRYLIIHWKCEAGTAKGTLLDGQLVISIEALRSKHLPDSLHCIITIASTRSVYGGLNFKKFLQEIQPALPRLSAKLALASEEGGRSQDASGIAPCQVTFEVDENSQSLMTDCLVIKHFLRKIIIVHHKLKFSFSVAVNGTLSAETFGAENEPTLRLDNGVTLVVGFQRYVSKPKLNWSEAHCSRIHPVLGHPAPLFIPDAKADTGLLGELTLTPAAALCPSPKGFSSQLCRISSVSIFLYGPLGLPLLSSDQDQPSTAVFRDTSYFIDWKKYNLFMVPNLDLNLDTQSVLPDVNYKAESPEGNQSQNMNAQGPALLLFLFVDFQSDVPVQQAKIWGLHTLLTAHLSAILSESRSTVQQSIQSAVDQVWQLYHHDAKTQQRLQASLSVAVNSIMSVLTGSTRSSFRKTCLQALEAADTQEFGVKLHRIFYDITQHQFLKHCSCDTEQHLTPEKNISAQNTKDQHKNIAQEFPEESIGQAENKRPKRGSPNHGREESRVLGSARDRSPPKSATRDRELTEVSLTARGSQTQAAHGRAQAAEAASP
- assay: fluorescence anisotropy
pKd: −log10 of the molar value.
Please use yes whenever pKd is not below 6, and no whenever it is.

Problem: Confirm if pKd reported for the binder 2B39 dsDNA (dsDNA) DNA 1: CTTTCCAGAAGCTACCACCATCATGTCTTCTACCACTGT DNA 2: ACAGTGGTAGAAGACATGATGGTGGTAGCTTCTGGAAAG is 6 or above.
Solution: yes

Problem: Could you please find out whether 2B20 dsDNA (dsDNA) DNA 1: GCTACCACCATCATGTCTTC DNA 2: GAAGACATGATGGTGGTAGC has pKd that meets 6 or exceeds it?
Solution: no

Problem: Record CTTTCCAGAAGCTACCACCATCATGTCTTCTACCACTGT (ssDNA) [ss2B39 (labeled)] ; criterion: pKd no lower than 6. Met?
Solution: yes
